Values from the supplement of paper PMC9170038

Tested on: MS2 coat protein
Assay: apparent KD of MS2 coat protein; designed switch direction (-1 OFF switch, 1 ON switch): -1; higher = weaker reporter binding
Settings: input ligand: FMN 200 uM
Threshold rule: apparent KD of MS2 coat protein greater than or equal to 60 nM is TRUE; below that, FALSE.

[
  {
    "Sequence code": "CGAAGAUGAGGAUAUGCUACAGACAUGUUCGCGCAGAAGUAACAUGAGGAUCACCCAUGUAGAAGGCAUCUUUU [Eternabot (L2) Solution 88] (Eterna round: R97, puzzle: Exclusion 2)",
    "Measured on": "MS2 coat protein",
    "Assigned class": "FALSE"
  },
  {
    "Sequence code": "AUAUUGCGAGGAUAUACAUGAGGAUCACCCAUGUGGUAGUAGAUACGGUAGGGCUAGUGUAGAAGGUGUUAUGA [EX3 #14] (Eterna round: R97, puzzle: Exclusion 3)",
    "Measured on": "MS2 coat protein",
    "Assigned class": "TRUE"
  },
  {
    "Sequence code": "CCCAGAUAGGAAGGAUAUUGUACAUGAGGAUCACCCAUGUAAUAAAUGAGGAUCACGGAUGUAGACAAGAAGGUCCGGAUAAGC [Ostracism 6 - Jieux - Exclusion NG 2] (Eterna round: R96, puzzle: Exclusion NG 2)",
    "Measured on": "MS2 coat protein",
    "Assigned class": "FALSE"
  },
  {
    "Sequence code": "UUGUCACAUGAGGAUCACCCAUGUGAGGAUAUGGCCCGCCCGGCGUGUGCUGGUUUUGUCAGAAGGCGCGUGGG [salish99_ex1_r4_028] (Eterna round: R97, puzzle: Exclusion 1)",
    "Measured on": "MS2 coat protein",
    "Assigned class": "FALSE"
  },
  {
    "Sequence code": "CAGUUCUGACGGAGAUCCAACAUGAGGAUCACCCAUGUCUCAAAAGCUUUUUGCUCGUCUUAUCCUCCUCAGGACUC [Mat - Sensor, turn-off var - Eli Mod - D58] (Eterna round: R97, puzzle: Sensor, turn-off variant 1)",
    "Measured on": "MS2 coat protein",
    "Assigned class": "FALSE"
  },
  {
    "Sequence code": "AAAGUGGGCCAGAACAUGAGGAUCACCCAUGUCUGAAAUAGCAAGGAUAUUACGAGCAAAAGGAGUAAGAAGGUGCACAGUACG [Eternabot solution 41] (Eterna round: R96, puzzle: Exclusion NG 3)",
    "Measured on": "MS2 coat protein",
    "Assigned class": "FALSE"
  },
  {
    "Sequence code": "GCACGGAGUGUAGGAUAUCUGUGCGAUUAGCUCAGAGAAGGACACAUGAGGAUCACCCAUGUGUUCCAGCGAAAGCUUCCGUGC [Eli exng1 - 047] (Eterna round: R96, puzzle: Exclusion NG 1)",
    "Measured on": "MS2 coat protein",
    "Assigned class": "FALSE"
  },
  {
    "Sequence code": "AAUAUCACAGGAUAUCCGGAUUUGUACAUGAGGAUCACCCAUGUGGUGACGUAGAACUCCGGAGAAGGGUGUCCAG [Eternabot (L2) Solution 89] (Eterna round: R97, puzzle: Exclusion 5)",
    "Measured on": "MS2 coat protein",
    "Assigned class": "FALSE"
  },
  {
    "Sequence code": "UGGCUUAGAGGAUAUACAUUGAAUAAGAUUCAUGUAAAACUACAUGAGGAUCACCCAUGUAGAAGGCUAGGCCU [Mat - Exclusion 2 - JL Mod - D73] (Eterna round: R97, puzzle: Exclusion 2)",
    "Measured on": "MS2 coat protein",
    "Assigned class": "FALSE"
  },
  {
    "Sequence code": "CCUCCACAUGAGGAUCACCCAUGUAAGGAUAUACCACGCUAAGGCAAACAAAAGAACGGUAGAAGGUACCUGGC [Eternabot (Original) Solution 44] (Eterna round: R97, puzzle: Exclusion 1)",
    "Measured on": "MS2 coat protein",
    "Assigned class": "FALSE"
  },
  {
    "Sequence code": "GCCUUAUCCGUCAGGAUAUACAUUUUUUUUUUUUUGUAGAAGGGACAUGAGGAUCACCCAUGUACAUUACAUUG [alecazam17] (Eterna round: R97, puzzle: Brourd's mod of Exclusion 4)",
    "Measured on": "MS2 coat protein",
    "Assigned class": "FALSE"
  },
  {
    "Sequence code": "UAGCAUUGCCAAAGGUAGUGCAUUACAUGAGGAUCACCCAUGUAGGAUAUGGUAGGCUUUGCUUACCAGAAGGACAUGAUAAUU [Mat - Exclusion NG 3 - Mod of JL - D15] (Eterna round: R96, puzzle: Exclusion NG 3)",
    "Measured on": "MS2 coat protein",
    "Assigned class": "TRUE"
  },
  {
    "Sequence code": "CCCAGUUAGGAAGGAUAUUGUACAUGAGGAUCACCCAUGUAAUAAAUGAGGAUCACGGAUGUAGACAAGAAGGUCCGGAUAGGC [Ostracism 8 - Jieux - Exclusion NG 2] (Eterna round: R96, puzzle: Exclusion NG 2)",
    "Measured on": "MS2 coat protein",
    "Assigned class": "TRUE"
  },
  {
    "Sequence code": "UAUUAGCAAGCGAAAUCCCACAUGAGGAUCACCCAUGUAAAUAAAAGCUCCAGAAUUACUGGAGCAGCUCGUCUUAU [Winner reversed engineered 18] (Eterna round: R97, puzzle: Sensor, turn-off variant 1)",
    "Measured on": "MS2 coat protein",
    "Assigned class": "FALSE"
  },
  {
    "Sequence code": "UUUAGUUCAGGAUAUGAUGAAUUAUACAUGAGGAUCACCCAUGUAGAUCCUGAAUUAACAUCAGAAGGGAACAUUU [JL-ex5-4.46 Brourd mod] (Eterna round: R97, puzzle: Exclusion 5)",
    "Measured on": "MS2 coat protein",
    "Assigned class": "FALSE"
  },
  {
    "Sequence code": "AAUACAAGCUAUUGAUCCCACAUGAGGAUCACCCAUGUAGCUGGCCGUGAGACCAGCUUUACGAUAGCUCGUCUUAU [Sensor-V1 #50] (Eterna round: R97, puzzle: Sensor, turn-off variant 1)",
    "Measured on": "MS2 coat protein",
    "Assigned class": "TRUE"
  }
]
